# TEST_DESCRIPTION: Pharmacokinetic (PK) experiment in rats
# Assay type: in vivo
# EXPERIMENTAL_CONTEXT: male, SD, plasma, po; rat, intragastric 20 mg/kg, 0-24 hour
MEASUREMENT_KIND: AUC(0-t) (ng·h/mL)

>>> df
                                   molecule  value
0  CC(=O)c1c(C)c2cnc(Nc3ccc(C4CCN(CCCS(C)(=O)=O)CC4)cn3)nc2n(C2CCCC2)c1=O  11200
1  CC(=O)c1c(C)c2cnc(Nc3ccc(C4CCN(CCS(C)(=O)=O)CC4)cn3)nc2n(C2CCCC2)c1=O   4400
2  CC(=O)c1c(C)c2cnc(Nc3ccc(N4CCNCC4)cn3)nc2n(C2CCCC2)c1=O [PD-0332991, Palbociclib, reference compound]   1250

---

# Tested on: SW620
# TEST_DESCRIPTION: Tumor cell proliferation inhibition (CellTiter-Glo), SW620
# Type: cell-based
# EXPERIMENTAL_CONTEXT: Homo sapiens, SW-620; 72 hours, 10% fetal bovine serum; read-out: SW620 IC50 class
# Protocol: The content of adenosine triphosphate (ATP) was determined using the CellTiter-Glo Luminescent Cell Viability Assay Kit (Promega, Madison, Wis.) to evaluate cell viability. […] The cell density was determined using Scepter automated cell counter (Millipore # PHCC00000) after the cells were digested with pancreatin in cell culture dishes and resuspended in DPBS medium. […] IC50 values were calculated by fitting S-shaped dose-response curves.
pIC50: −log10 of the molar value.
MEASUREMENT_KIND: pIC50

                                   compound         value
0  CC(=O)c1c(C)c2cnc(Nc3ccc(N4CCNCC4)cn3)nc2n(C2CCCC2)c1=O [PD-0332991, Palbociclib, reference compound]  6.30 to 7.00
1  CC(=O)c1c(C)c2cnc(Nc3ccc(C4CCN(CCCS(C)(=O)=O)CC4)cn3)nc2n(C2CCCC2)c1=O [Compound 2]  6.30 to 7.00
2  CC(=O)c1c(C)c2cnc(Nc3ccc(C4CCCN(CCS(C)(=O)=O)C4)cn3)nc2n(C2CCCC2)c1=O (stereo not drawn) [Compound 5]  6.30 to 7.00
